Tested on: HAB1
protocol.description: Yeast two hybrid of pBD-PYR1 site saturation mutants with pACT-HAB1 on 10 μM ABA, β-galactosidase staining
Assay type: cell-based, Arabidopsis
Design: key: x: Mutations in PYR1 that disrupt ABA-induced binding to PYR1 to HAB1
reported.conditions: S. cerevisiae Y190, 10 μM ABA; dead = lack of visible staining in comparison to wild type control
parameter.measured: Mutations in PYR1 that disrupt ABA-induced binding to PYR1 to HAB1

Prompt line: What value of Mutations in PYR1 that disrupt ABA-induced binding to PYR1 to HAB1 has been reported for the following molecule? S85V: PYR1 mutant (protein, UniProt O49686 1-191, looked up, variant S85V) Abscisic acid receptor PYR1: MPSELTPEERSELKNSIAEFHTYQLDPGSCSSLHAQRIHAPPELVWSIVRRFDKPQTYKHFIKSCSVEQNFEMRVGCTRDVIVIVGLPANTSTERLDILDDERRVTGFSIIGGEHRLTNYKSVTTVHRFEKENRIWTVVLESYVVDMPEGNSEDDTRMFADTVVKLNLQKLATVAEAMARNSGDGSGSQVT
Response line: x

Prompt line: Consider the molecule shown here: P148Y: PYR1 mutant (protein, UniProt O49686 1-191, looked up, variant P148Y) Abscisic acid receptor PYR1: MPSELTPEERSELKNSIAEFHTYQLDPGSCSSLHAQRIHAPPELVWSIVRRFDKPQTYKHFIKSCSVEQNFEMRVGCTRDVIVISGLPANTSTERLDILDDERRVTGFSIIGGEHRLTNYKSVTTVHRFEKENRIWTVVLESYVVDMYEGNSEDDTRMFADTVVKLNLQKLATVAEAMARNSGDGSGSQVT What is its recorded Mutations in PYR1 that disrupt ABA-induced binding to PYR1 to HAB1?
Response line: x

Prompt line: Please give the measured Mutations in PYR1 that disrupt ABA-induced binding to PYR1 to HAB1 for this molecule: H115W: PYR1 mutant (protein, UniProt O49686 1-191, looked up, variant H115W) Abscisic acid receptor PYR1: MPSELTPEERSELKNSIAEFHTYQLDPGSCSSLHAQRIHAPPELVWSIVRRFDKPQTYKHFIKSCSVEQNFEMRVGCTRDVIVISGLPANTSTERLDILDDERRVTGFSIIGGEWRLTNYKSVTTVHRFEKENRIWTVVLESYVVDMPEGNSEDDTRMFADTVVKLNLQKLATVAEAMARNSGDGSGSQVT
Response line: x
